Test system: TYRO3;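 note: KINOMEscan kinase panel screen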
Settings: concentration: 1 μM, replicates: in singlicate; n = 1
property_measured: %Inh (%)
Give bare numbers, in %.

Sample records with %Inh:
Query: # lookup: %Inh of O=c1cc(N2CCOCC2)nc2n(Cc3ccc(F)c(Cl)c3)ccn12
Result: 0

Query: # lookup: %Inh of CCCNC(=O)Nc1ccc(Oc2ncnc3ccn(C)c23)cc1
Result: 0

Query: # lookup: %Inh of COC(=O)c1c(-c2ccccc2)c2cc(Br)ccc2c(=O)n1Cc1ccc(NC(=O)CCC(=O)O)cc1
Result: 0

Query: # lookup: %Inh of Cc1ccccc1COc1cc(-n2cnc3cc(Cl)ccc32)sc1C(N)=O
Result: 5

Query: # lookup: %Inh of OCCCNc1nccc(-c2c(-c3cccc(C(F)(F)F)c3)nn3cc(C(F)(F)F)ccc23)n1
Result: 0

Below are 4 molecules. Give each one its %Inh.
1. CCn1c(-c2nonc2N)nc2ccccc21
2. CCC(=O)c1c(-c2ccccc2)c2cc(Cl)ccc2c(=O)n1Cc1cc(S(C)(=O)=O)n(CC(F)F)n1
3. CCC(=O)c1c(-c2ccccc2)c2cc(Cl)ccc2c(=O)n1Cc1ccc(C(=O)O)cc1
4. COc1cccc(C2=C(Nc3cccc(C(=O)O)c3)C(=O)NC2=O)c1

Result:
1. 0
2. 0
3. 0
4. 0

Below are 3 molecules. Give each one its %Inh.
1. Nc1n[nH]c2nnc(-c3ccccc3)c(-c3ccccc3)c12
2. Cc1nn2c(=O)cc(N3CCOCC3)nc2n1Cc1cccc(Cl)c1Cl
3. COc1cc(Nc2ccnc3ccc(C(F)(F)F)cc23)cc(OC)c1OC

Result:
10
0
0

Below are 5 molecules. Give each one its %Inh.
1. COc1cc2ncn(-c3cc(OCc4ccc(S(C)(=O)=O)cc4)c(C(N)=O)s3)c2cc1OC
2. COC(=O)c1c(-c2ccccc2)c2cc(Br)ccc2c(=O)n1Cc1ccc(S(C)(=O)=O)cc1
3. CCc1nc(-c2cccc(C)c2)c(-c2ccncc2)s1
4. COC(=O)c1c(-c2ccccc2)c2cc(C)ccc2c(=O)n1Cc1ccccc1
5. O=C(Nc1n[nH]c2cc(-c3ccccc3F)ccc12)C1CC1

Result:
19
1
0
0
0
